# Tested on: HT29 colon
# assay_text: NCI tumour cell line growth inhibition, 384-well format
outcome_measure: GI50

Nc1ncn([C@H]2C[C@H](OP(=O)(O)OC[C@H]3O[C@@H](n4cnc5c(=O)[nH]c(N)nc54)C[C@@H]3O)[C@@H](CO)O2)c(=O)n1    46.5 µM
Cc1[nH]nc2ncc(C(=O)N3CCC[C@H]3c3ccc(Cl)cc3)cc12    > 100 µM
C=CC(=O)N1CC[C@H](n2nc(C#Cc3cc(OC)cc(OC)c3)c3c(N)ncnc32)C1    17.5 µM
C=CC(=O)Nc1cccc(Oc2nc(Nc3ccc(N4CCN(C)CC4)cc3OC)ncc2Cl)c1    1.65 µM

Let's switch to this compound now.
Q) Look at this compound and give its reported GI50. Cc1ccccc1C(C(=O)NC1CCCCC1)N(C(=O)CNc1ccc(C#N)cc1)c1cccc(F)c1 (stereo not given)
A) 5.56 µM

----------
# Tested on: SNB-19 CNS
# assay_text: NCI tumour cell line growth inhibition, 384-well format
Listed compounds paired with reported GI50

Examples from the recorded data:
C=CC(=O)N1CC[C@H](n2nc(C#Cc3cc(OC)cc(OC)c3)c3c(N)ncnc32)C1    12.6 µM
Cc1sc2c(c1C)C(c1ccc(Cl)cc1)=N[C@@H](CC(=O)NCCCN1CCN(C)CC1)c1nnc(C)n1-2    > 100 µM
Cc1[nH]nc2ncc(C(=O)N3CCC[C@H]3c3ccc(Cl)cc3)cc12    > 100 µM
CC1Cc2ccccc2N1C(=O)Cc1nc(N2CCOCC2)cc(=O)[nH]1 (stereo not given)    > 100 µM

Q) Quick one: GI50 of `Nc1ncn([C@H]2C[C@H](OP(=O)(O)OC[C@H]3O[C@@H](n4cnc5c(=O)[nH]c(N)nc54)C[C@@H]3O)[C@@H](CO)O2)c(=O)n1` ?
A) > 100 µM

----------
# Test system: MDA-MB-468 breast
# assay_text: NCI tumour cell line growth inhibition, 384-well format; in the data active = GI50 below about 0.43 µM; inactive = the rest
Valid outcomes are listed here; reply with one: T for active, F for inactive

Below, 3 compounds whose answers are already recorded.
C=CC(=O)Nc1cccc(Oc2nc(Nc3ccc(N4CCN(C)CC4)cc3OC)ncc2Cl)c1    T
CN(C)Cc1c(C(=O)NCCOc2ccc(C(=O)NO)cc2)oc2ccccc12    T
C=CC(=O)N1CC[C@H](n2nc(C#Cc3cc(OC)cc(OC)c3)c3c(N)ncnc32)C1    F

Q) Test call, this compound: Cc1ccccc1C(C(=O)NC1CCCCC1)N(C(=O)CNc1ncccc1F)c1cccc(F)c1 (stereo not given)
A) F

Q) Same question for `Cc1sc2c(c1C)C(c1ccc(Cl)cc1)=N[C@@H](CC(=O)NCCCN1CCN(C)CC1)c1nnc(C)n1-2` please.
A) T

----------
# Test system: MDA-MB-231 breast
# assay_text: NCI tumour cell line growth inhibition, 384-well format; in the data active means GI50 below about 0.43 µM; inactive means the rest
Residues, ends and D or L forms follow the SMILES beside them. *: point of attachment. Cbz = O=C(OCc1ccccc1)*
Use one of these outcomes when replying: TRUE (active), FALSE (inactive)

// below: answered compounds
CC(C)C[C@@H](C=O)NC(=O)[C@H](CC(C)C)NC(=O)[C@H](CC(C)C)NC(=O)OCc1ccccc1 (Cbz-Leu-Leu-Leu-aldehyde)    TRUE
Cc1ccccc1C(C(=O)NC1CCCCC1)N(C(=O)CNc1ccc(C#N)cc1)c1cccc(F)c1 (stereo not given)    FALSE

Q) Hi, do you know how `CN(C)Cc1c(C(=O)NCCOc2ccc(C(=O)NO)cc2)oc2ccccc12` came out in this test?
A) TRUE

Q) Here is the next compound: `Nc1ncn([C@H]2C[C@H](OP(=O)(O)OC[C@H]3O[C@@H](n4cnc5c(=O)[nH]c(N)nc54)C[C@@H]3O)[C@@H](CO)O2)c(=O)n1`
A) FALSE

Q) Entry `C=CC(=O)N1CC[C@H](n2nc(C#Cc3cc(OC)cc(OC)c3)c3c(N)ncnc32)C1` please
A) FALSE

----------
# System: RXF 393 renal
# assay_text: NCI tumour cell line growth inhibition, 384-well format
Each record here notes measured GI50.

C=CC(=O)N1CC[C@H](n2nc(C#Cc3cc(OC)cc(OC)c3)c3c(N)ncnc32)C1    6.72 µM
CN(C)Cc1c(C(=O)NCCOc2ccc(C(=O)NO)cc2)oc2ccccc12    0.291 µM
C=CC(=O)Nc1cccc(Oc2nc(Nc3ccc(N4CCN(C)CC4)cc3OC)ncc2Cl)c1    1.29 µM

Next compound, please.
Q) Entry `Nc1ncn([C@H]2C[C@H](OP(=O)(O)OC[C@H]3O[C@@H](n4cnc5c(=O)[nH]c(N)nc54)C[C@@H]3O)[C@@H](CO)O2)c(=O)n1` , system RXF 393 renal: what GI50 was measured?
A) 1.05 µM

----------
# Tested on: LOX IMVI melanoma
# assay_text: NCI tumour cell line growth inhibition, 384-well format; in the data active means GI50 below about 0.43 µM; inactive means the rest
Residues, ends and D or L forms follow the SMILES beside them. *: point of attachment. Cbz = O=C(OCc1ccccc1)*
Respond using exactly one of the listed classes: active, inactive

Cc1ccccc1C(C(=O)NC1CCCCC1)N(C(=O)CNc1ccc(C#N)cc1)c1cccc(F)c1 (stereo not given)    inactive
C=CC(=O)N1CC[C@H](n2nc(C#Cc3cc(OC)cc(OC)c3)c3c(N)ncnc32)C1    inactive
Cc1ccccc1C(C(=O)NC1CCCCC1)N(C(=O)CNc1ncccc1F)c1cccc(F)c1 (stereo not given)    inactive
CN(C)Cc1c(C(=O)NCCOc2ccc(C(=O)NO)cc2)oc2ccccc12    active

Q) Which result was noted for this compound in the test: CC(C)C[C@@H](C=O)NC(=O)[C@H](CC(C)C)NC(=O)[C@H](CC(C)C)NC(=O)OCc1ccccc1 (Cbz-Leu-Leu-Leu-aldehyde)
A) active

----------
# System: SN12C renal
# assay_text: NCI tumour cell line growth inhibition, 384-well format
Residues, ends and D or L forms follow the SMILES beside them. *: point of attachment. Cbz = O=C(OCc1ccccc1)*
outcome_measure: TGI

The cases that follow already have their TGI on record.
Cc1[nH]nc2ncc(C(=O)N3CCC[C@H]3c3ccc(Cl)cc3)cc12    > 100 µM
C=CC(=O)Nc1cccc(Oc2nc(Nc3ccc(N4CCN(C)CC4)cc3OC)ncc2Cl)c1    2.61 µM
CC1Cc2ccccc2N1C(=O)Cc1nc(N2CCOCC2)cc(=O)[nH]1 (stereo not given)    > 100 µM
CC(C)C[C@@H](C=O)NC(=O)[C@H](CC(C)C)NC(=O)[C@H](CC(C)C)NC(=O)OCc1ccccc1 (Cbz-Leu-Leu-Leu-aldehyde)    0.355 µM

Shift focus to the following entry.
Q) Using the record for `Nc1ncn([C@H]2C[C@H](OP(=O)(O)OC[C@H]3O[C@@H](n4cnc5c(=O)[nH]c(N)nc54)C[C@@H]3O)[C@@H](CO)O2)c(=O)n1` , report its TGI.
A) 26.4 µM

----------
# Tested on: TK-10 renal
# assay_text: NCI tumour cell line growth inhibition, 384-well format; in the data active = GI50 below about 0.43 µM; inactive = the rest
Residues, ends and D or L forms follow the SMILES beside them. *: point of attachment. Cbz = O=C(OCc1ccccc1)*
Hi! Could you answer with just one of these? label 1 (active), label 0 (inactive)

Below are worked cases with known answers.
Cc1ccccc1C(C(=O)NC1CCCCC1)N(C(=O)CNc1ncccc1F)c1cccc(F)c1 (centres undefined)    label 0
CC(C)C[C@@H](C=O)NC(=O)[C@H](CC(C)C)NC(=O)[C@H](CC(C)C)NC(=O)OCc1ccccc1 (Cbz-Leu-Leu-Leu-aldehyde)    label 1
Cc1ccccc1C(C(=O)NC1CCCCC1)N(C(=O)CNc1ccc(C#N)cc1)c1cccc(F)c1 (centres undefined)    label 0

Okay, now this compound:
Q) Record request — test call for `CN(C)Cc1c(C(=O)NCCOc2ccc(C(=O)NO)cc2)oc2ccccc12`
A) label 1

----------
# System: K-562 leukemia
# assay_text: NCI tumour cell line growth inhibition, 384-well format; in the data active = GI50 below about 0.43 µM; inactive = the rest
Residues, ends and D or L forms follow the SMILES beside them. *: point of attachment. Cbz = O=C(OCc1ccccc1)*
Select the matching outcome among active, inactive

C=CC(=O)Nc1cccc(Oc2nc(Nc3ccc(N4CCN(C)CC4)cc3OC)ncc2Cl)c1    inactive

Q) Please share the test call associated with `Cc1[nH]nc2ncc(C(=O)N3CCC[C@H]3c3ccc(Cl)cc3)cc12` .
A) inactive

Q) Thanks! And CC(C)C[C@@H](C=O)NC(=O)[C@H](CC(C)C)NC(=O)[C@H](CC(C)C)NC(=O)OCc1ccccc1 (Cbz-Leu-Leu-Leu-aldehyde) ?
A) active

Q) Another compound to look at: `C=CC(=O)N1CC[C@H](n2nc(C#Cc3cc(OC)cc(OC)c3)c3c(N)ncnc32)C1`
A) inactive

----------
Listing of recorded TGI by entry.
# System: NCI-H522 lung
# assay_text: NCI tumour cell line growth inhibition, 384-well format

CC1Cc2ccccc2N1C(=O)Cc1nc(N2CCOCC2)cc(=O)[nH]1 (centres undefined)    > 100 µM
CN(C)Cc1c(C(=O)NCCOc2ccc(C(=O)NO)cc2)oc2ccccc12    0.571 µM
Cc1ccccc1C(C(=O)NC1CCCCC1)N(C(=O)CNc1ncccc1F)c1cccc(F)c1 (centres undefined)    > 100 µM

Q) Given `Cc1[nH]nc2ncc(C(=O)N3CCC[C@H]3c3ccc(Cl)cc3)cc12` , state its recorded TGI.
A) > 100 µM
